Where do these numbers come from? They come from ChEMBL document CHEMBL5724796.

- assayedTarget: Cyclin-dependent kinase 2 (Homo sapiens) (UniProt P24941)
- particulars: Compound concentration 20.0 uM
- Description: Thermal Shift Assay. Domain: start/stop: M1-L298
readoutLabel: ΔTm (°C)
Respond with the bare value in °C.

Check out these entries, answers already filled in.
O=C(c1ccc2c(ccn2-c2ccc(F)cc2)c1)N1CC(N2CCN(C(=O)c3nccs3)CC2)C1 = -1.22
Cc1cc(N2C[C@@H](C)N[C@@H](C)C2)ncc1-c1ccc(-c2nc3c(ccn3C)c(=O)[nH]2)cc1 = 0.78
O=S(=O)(O)c1ccc2cc(/N=N/c3cc(S(=O)(=O)O)c4cccnc4c3O)ccc2c1 = 2.89

-- ask Quick check: ΔTm of CCCC1O[C@@H]2C[C@H]3[C@@H]4CCC5=CC(=O)C=C[C@]5(C)[C@H]4[C@@H](O)C[C@]3(C)[C@]2(C(=O)CO)O1 (stereo partly drawn) ?
-- reply 0.01

-- ask Quick check: ΔTm of Cc1cccc(N/N=C(\C(=O)c2cccs2)C(=O)C(F)(F)F)c1 ?
-- reply 0.44

-- ask Quick check: ΔTm of CCCCN(Cc1ccc(C(=O)NO)cc1)C(=O)Nc1ccccc1 ?
-- reply 0.54

-- ask Quick check: ΔTm of CC(C)c1cnc(CSc2cnc(NC(=O)C3CCNCC3)s2)o1 ?
-- reply 6.28
